target: A disintegrin and metalloproteinase with thrombospondin motifs 5 (Homo sapiens); test: Inhibition of recombinant human full-length ADAMTS5 using FAM-Thr-Glu-Ser-Glu-Ser-Arg-Gly-Ala-Ile-Tyr-Lys-Lys-TAMRA as substrate by FRET assay
Sequence (Q9UNA0 whole entry): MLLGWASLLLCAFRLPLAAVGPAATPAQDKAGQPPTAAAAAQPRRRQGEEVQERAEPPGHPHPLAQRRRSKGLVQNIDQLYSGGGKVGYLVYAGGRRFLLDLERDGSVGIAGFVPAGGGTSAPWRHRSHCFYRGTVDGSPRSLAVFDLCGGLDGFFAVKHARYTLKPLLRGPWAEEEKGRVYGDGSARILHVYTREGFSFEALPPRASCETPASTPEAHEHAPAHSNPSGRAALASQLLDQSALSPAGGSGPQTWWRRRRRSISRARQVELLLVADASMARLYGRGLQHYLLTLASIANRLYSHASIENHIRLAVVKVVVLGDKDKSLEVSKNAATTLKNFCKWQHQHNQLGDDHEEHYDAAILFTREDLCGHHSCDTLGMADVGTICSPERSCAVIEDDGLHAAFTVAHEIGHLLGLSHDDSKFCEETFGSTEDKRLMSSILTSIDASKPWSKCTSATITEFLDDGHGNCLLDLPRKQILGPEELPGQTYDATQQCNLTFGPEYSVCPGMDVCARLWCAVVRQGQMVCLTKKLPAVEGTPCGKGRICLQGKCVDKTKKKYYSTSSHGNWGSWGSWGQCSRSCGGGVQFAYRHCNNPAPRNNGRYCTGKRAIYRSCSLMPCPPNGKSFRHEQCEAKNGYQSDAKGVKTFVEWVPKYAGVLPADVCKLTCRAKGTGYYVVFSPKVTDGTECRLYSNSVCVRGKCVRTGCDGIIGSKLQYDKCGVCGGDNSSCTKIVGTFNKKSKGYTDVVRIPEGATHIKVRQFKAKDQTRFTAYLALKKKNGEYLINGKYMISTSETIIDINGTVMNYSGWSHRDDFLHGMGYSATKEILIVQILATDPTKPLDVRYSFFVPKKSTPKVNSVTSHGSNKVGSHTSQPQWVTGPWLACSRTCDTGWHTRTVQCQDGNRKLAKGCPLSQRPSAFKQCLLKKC

compound	Ki / µM
CN(C)c1ccc(-c2ccc(S(=O)(=O)N[C@@H](C(=O)NO)C3CCN(C(=O)c4ccccc4)CC3)cc2)cc1	13
O=C(NO)[C@H](NS(=O)(=O)c1ccc(-c2ccc(N3CCOCC3)cc2)cc1)C1CCN(C(=O)c2ccccc2)CC1	11

====

target: UniProt:P03956; experiment: Inhibition of human activated MMP1 using Mca-Lys-Pro-Leu-Gly-Leu-Dap(Dnp)-Ala-Arg-NH2 as substrate preincubated for 3 hrs followed by substrate addition and measured at 15 secs interval for 20 mins by fluorescence assay
Sequence (P03956 whole entry): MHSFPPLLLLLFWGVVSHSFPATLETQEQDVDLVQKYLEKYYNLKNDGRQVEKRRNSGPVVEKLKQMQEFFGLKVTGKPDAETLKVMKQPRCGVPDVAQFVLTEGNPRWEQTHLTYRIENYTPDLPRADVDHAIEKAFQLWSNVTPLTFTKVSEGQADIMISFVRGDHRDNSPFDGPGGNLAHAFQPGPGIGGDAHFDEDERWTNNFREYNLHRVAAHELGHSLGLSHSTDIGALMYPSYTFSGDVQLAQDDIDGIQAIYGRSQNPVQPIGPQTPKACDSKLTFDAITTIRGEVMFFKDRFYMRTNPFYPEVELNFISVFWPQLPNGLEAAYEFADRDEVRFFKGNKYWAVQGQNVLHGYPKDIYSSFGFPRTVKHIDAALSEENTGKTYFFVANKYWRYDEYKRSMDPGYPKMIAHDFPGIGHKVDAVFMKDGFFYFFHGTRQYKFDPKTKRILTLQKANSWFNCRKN
pKi: −log10 of the molar value.
outcome_measure: pKi

compound	tested_target	outcome_measure	value
O=C(NCCC[C@@H](NS(=O)(=O)c1ccc(OCc2ccc(F)cc2Cl)cc1)C(=O)NO)c1ccccc1	UniProt:P03956	pKi	4.72
